assay: ATG_AP_1_CIS: Attagene CIS-FACTORIAL HepG2 Assay for human Activator Protein 1 (AP-1) (AID 2282931); details: HepG2 Attagene cis-factorial AP-1 reporter mRNA; actives raise or lower the signal
Activity calls are given as the source filed them. How the source made its calls: active means hit-call score of the fitted dose curve at least 0.9, where 1 is the maximum; inactive means score below 0.9.
Classes used: TRUE (active), FALSE (inactive)

compound: O=C(Cl)C(F)(F)C(F)(F)C(F)(F)C(F)(F)C(F)(F)C(F)(F)C(F)(F)C(F)(F)F
class.label: TRUE

compound: O=C(O)C(F)(F)C(F)(F)C(F)(F)F
class.label: FALSE

compound: C=CC(=O)OCC(F)(F)C(F)(F)C(F)(F)C(F)(F)C(F)(F)C(F)(F)C(F)(F)F
class.label: FALSE

compound: CC/C=C\CCOC(=O)c1ccccc1
class.label: FALSE

compound: CO[Si](OC)(c1ccccc1)c1ccccc1
class.label: FALSE

compound: FC(F)(F)C(F)(F)C(F)(F)C(F)(F)C(F)(F)C(F)(F)CC1CO1 (stereo unspecified)
class.label: FALSE

compound: CC/C=C\CCOC(C)=O
class.label: FALSE

compound: Cc1ccc(S(=O)(=O)OCC(F)(F)C(F)(F)C(F)(F)C(F)(F)C(F)(F)C(F)F)cc1
class.label: FALSE

compound: CCCCCCC(C)OC(=O)CCCCC(=O)OC(C)CCCCCC (stereo unspecified)
class.label: FALSE

compound: NC(=O)C(F)(F)C(F)(F)C(F)(F)C(F)(F)F
class.label: FALSE

compound: CCC(=O)OCCc1ccccc1
class.label: FALSE

compound: O=C(C=Cc1ccccc1)OCC=Cc1ccccc1
class.label: FALSE

compound: FC(F)(F)C(F)(F)C(F)(F)C(F)(F)C(F)(F)CCI
class.label: TRUE

compound: C=C(C)C(=O)OCCC(F)(F)C(F)(F)C(F)(F)C(F)(F)C(F)(C(F)(F)F)C(F)(F)F
class.label: FALSE

compound: FC(F)(F)C(F)(F)C(F)(F)CI
class.label: FALSE

compound: Oc1ccc(Nc2ccccc2)cc1
class.label: FALSE

compound: O=C(OCCOCCOCCOC(=O)c1ccccc1)c1ccccc1
class.label: FALSE

compound: CCCCCC=O
class.label: FALSE

compound: FC(F)(F)C(F)(F)C(F)(F)C(F)(F)CCI
class.label: FALSE

compound: Nc1ccc(Oc2cccc(Oc3ccc(N)cc3)c2)cc1
class.label: FALSE

compound: C=CC/C=C/C/C=C/C/C=C/C
class.label: FALSE

compound: O[Si](c1ccccc1)(c1ccccc1)c1ccccc1
class.label: TRUE

compound: c1ccc(B(c2ccccc2)c2ccccc2)cc1
class.label: FALSE

compound: C1COCCN1
class.label: FALSE

compound: FC(F)(F)C(F)(F)C(F)(F)C(F)(F)C(F)(F)C(F)(F)C(F)(F)I
class.label: FALSE

compound: O=C(O)C(F)(F)C(F)(F)C(F)(F)C(F)(F)C(F)(F)C(F)(F)C(F)(F)C(F)(F)Cl
class.label: FALSE
